Experiment: qHTS assay to identify small molecule antagonists of the estrogen related receptor signaling pathway with the pleiotropic PPARgamma coactivator (PGC) from Tox21 10K library (AID 1224841); further: actives are mostly falling curves and most rising ones were filed inactive; nearly all actives have a fitted effect of over 50% in size; further: potency means the concentration at half of the fitted maximal effect
Conditions: PGC/ERR reporter cell line, ONE-Glo luciferase, 18 h; series mostly up to 92.4 µM
Records with an inconclusive call do not appear. Activity calls are given as the source filed them. How the calls were made is not given here.
assayEndpoint: Potency

Worked examples follow.
Cl/C=C\CCl; inactive
O=C1C=CC(=O)c2ccccc21; 34.4 µM (active)
COc1cccc2c1C(=O)c1c(O)c3c(c(O)c1C2=O)C[C@@](O)(C(=O)CO)CC3OC1CC(N2CCOC(OC)C2)C(O)C(C)O1 (stereo partly specified); 0.266 µM (active)
C=CC(=O)OCCCCOC(=O)C=C; inactive
C=CCC1=C(C)C(OC(=O)C2C(C=C(C)C)C2(C)C)CC1=O (stereo unspecified); 20.5 µM (active)

Continue with the molecule presented below.
### Prompt Please report the recorded Potency for O=[N+]([O-])c1c2ccccc2cc2ccccc12 .
### Response inactive

----------
Test: A CellTox Green Cytotoxicity Assay to monitor cytotoxicity in HEK293 cells - 24 hour (AID 1224875); further: nearly all actives have a fitted effect of over 45% in size; further: potency means the concentration at half of the fitted maximal effect
Settings: CellTox Green fluorescence; series mostly up to 76.8 µM
Results filed as inconclusive are left out. The source made the active and inactive calls. The call rests on the fitted dose curve; in most records, active means well fitted activation curve with a large enough effect in the repeat runs; inconclusive means weak or mixed curves; inactive means flat fitted curve, though single readings scatter.
assayEndpoint: Potency

CCCN(CC)CC1COC2(CCC(C(C)(C)C)CC2)O1 (stereo unspecified); inactive
O=[N+]([O-])c1ccc(Oc2ccc(C(F)(F)F)cc2[N+](=O)[O-])cc1; inactive
O=[N+]([O-])c1cc(Cl)ccc1Cl; inactive
C[C@]12Cc3nonc3C[C@@H]1CC[C@@H]1[C@@H]2CC[C@@]2(C)[C@H]1CC[C@]2(C)O; inactive

### Prompt Please report the recorded Potency for CCCCCCCCCCCCCC[P+](CCCCCC)(CCCCCC)CCCCCC (tested in a mixture with another compound) .
### Response 13.8 µM (active)

### Prompt Try C[As+](C)(C)CC(=O)[O-] next.
### Response inactive

### Prompt Try CCOP(=S)(OCC)SCS(=O)(=O)CC next.
### Response inactive

### Prompt Try O=C(CCl)Nc1ccccc1 next.
### Response inactive

### Prompt Try CCS(=O)(=O)c1cccnc1S(=O)(=O)NC(=O)Nc1nc(OC)cc(OC)n1 next.
### Response inactive

### Prompt Try CC(C)(C)c1cc([N+](=O)[O-])cc(C(C)(C)C)c1O next.
### Response inactive

### Prompt Try CCCN(CCC)c1c([N+](=O)[O-])cc(S(N)(=O)=O)cc1[N+](=O)[O-] next.
### Response 23.3 µM (active)

----------
Assay: A CellTox Green Cytotoxicity Assay to monitor cytotoxicity in HEK293 cells - 8 hour (AID 1224884); further: nearly all actives have a fitted effect of over 35% in size
Conditions: CellTox Green fluorescence; series mostly up to 76.8 µM
Text: National Center for Advancing Translational Sciences [NCATS] NIH Chemical Genomics Center [NCGC] U.S. Environmental Protection Agency [EPA] National Institutes of Environmental Health Sciences [NIEHS] National Toxicology Program [NTP] Cell-based models are critical for drug discovery. […] Viable cells produce no appreciable increases in fluorescence. Therefore, the fluorescence signal produced by the binding interaction with dead cell DNA is proportional to cytotoxicity. […]
Inconclusive results are not listed. Calls of active or inactive are those of the source. Calls come from the whole dose curve; as a rule, active = well fitted activation curve with a large enough effect in the repeat runs; inconclusive = weak or mixed curves; inactive = flat fitted curve, though single readings scatter.
Assign a class; possible classes are active, inactive

### Prompt Per the records of this test, what outcome belongs to Oc1ccccc1Br ?
### Response inactive

### Prompt Try O=C(CBr)c1ccc(O)cc1 next.
### Response inactive

### Prompt Try CN(CCCC(=O)c1cccnc1)N=O next.
### Response inactive

### Prompt Try CN(C)CCc1c[nH]c2ccc(O)cc12 next.
### Response inactive

### Prompt Try CCOP(=S)(OCC)SCS(=O)(=O)CC next.
### Response inactive

### Prompt Try Clc1ccc(-c2ccccc2)cc1 next.
### Response inactive

### Prompt Try CCCOCC(=Nc1ccc(Cl)cc1C(F)(F)F)n1ccnc1 next.
### Response active

### Prompt Try CC(C)(C)OO next.
### Response inactive

### Prompt Try CC(c1ccc(O)cc1)c1ccc(O)cc1 next.
### Response inactive

### Prompt Try COP(N)(=S)OC next.
### Response inactive

### Prompt Try CC(=[OH+])/C=C(/C)[O-].CC(=[OH+])/C=C(\C)[O-].CC(=[OH+])/C=C(\C)[O-].[Fe] next.
### Response inactive

### Prompt Try NNC(=O)c1ccccc1 next.
### Response inactive

### Prompt Try CCN(CC)c1c([N+](=O)[O-])cc(C(F)(F)F)c(N)c1[N+](=O)[O-] next.
### Response inactive

### Prompt Try CC1CCC(C(C)C)C(OC(=O)c2ccccc2N)C1 (configuration not stated) next.
### Response active

### Prompt Try CCOCn1c(-c2ccc(Cl)cc2)c(C#N)c(Br)c1C(F)(F)F next.
### Response inactive

### Prompt Try CCOC(=O)OC1=C(c2cc(C)ccc2C)C(=O)NC12CCC(OC)CC2 (configuration not stated) next.
### Response inactive

### Prompt Try Fc1ccc(Oc2ccnc3cc(Cl)cc(Cl)c23)cc1 next.
### Response inactive

### Prompt Try CCOP(=S)(OCC)OC(Cl)C(Cl)(Cl)Cl (configuration not stated) next.
### Response inactive

### Prompt Try O=[N+]([O-])c1cc(C(F)(F)F)c(Cl)c([N+](=O)[O-])c1Cl next.
### Response inactive

### Prompt Try CCC(C)c1cc(C(C)(C)C)cc(-n2nc3ccccc3n2)c1O (configuration not stated) next.
### Response inactive

### Prompt Try C=CC(=O)OCCCCOC(=O)C=C next.
### Response inactive

### Prompt Try CCCCCCCCCBr next.
### Response inactive

### Prompt Try C[C@]12CC[C@H](O)C[C@H]1CC[C@@H]1[C@@H]2C[C@@H](O)[C@]2(C)[C@@H](C3=CC(=O)OC3)CC[C@]12O next.
### Response inactive

### Prompt Try Clc1ccc(CCC(Cn2ccnc2)Sc2c(Cl)cccc2Cl)cc1 (configuration not stated) next.
### Response inactive

### Prompt Try O=C(CCl)Nc1ccccc1 next.
### Response inactive

### Prompt Try COc1ccc(OC)c(CC(C)N)c1 (configuration not stated) next.
### Response inactive

### Prompt Try C=CC(=O)N(C)C next.
### Response inactive

----------
Experiment: qHTS RealTime-Glo MT Cell Viability Assay in HepG2 cells - 16 hour (AID 1224885); further: nearly all actives have a fitted effect of over 50% in size
Settings: RealTime-Glo luminescence; series mostly up to 76.8 µM
Inconclusive results are not listed. Activity calls are given as the source filed them. Calls come from the whole dose curve; as a rule, active = well fitted cell-killing curve with a large enough effect in the repeat runs; inconclusive = weak or mixed curves; inactive = flat fitted curve, though single readings scatter.
Assign a class; possible classes are active, inactive

### Prompt Per the records of this test, what outcome belongs to CCCCCCCCCCCCCN1CC(C)OC(C)C1 (stereo not given) ?
### Response inactive

### Prompt Try COc1ccc(OC)c(CC(C)N)c1 (stereo not given) next.
### Response inactive

### Prompt Try Cl/C=C\CCl next.
### Response inactive

### Prompt Try CC(C)(c1ccc(O)c(-c2ccccc2)c1)c1ccc(O)c(-c2ccccc2)c1 next.
### Response active

### Prompt Try CC(Cl)CN(C)C (stereo not given) next.
### Response inactive

### Prompt Try CCCCCCCCCCCCBr next.
### Response inactive

### Prompt Try C[C@@H](Oc1ccc(Cl)cc1Cl)C(=O)O next.
### Response inactive

### Prompt Try NC(=O)c1ccc(N)nc1 next.
### Response inactive

### Prompt Try CCOCCOC(C)=O next.
### Response inactive

### Prompt Try COc1ccc(N)cc1N next.
### Response inactive

### Prompt Try c1ccc(OCC2CO2)cc1 (stereo not given) next.
### Response inactive

### Prompt Try COP(N)(=S)OC next.
### Response inactive

### Prompt Try ClC(Cl)=C(c1ccc(Cl)cc1)c1ccc(Cl)cc1 next.
### Response inactive

### Prompt Try O=C(Cl)c1ccc(Cl)cc1 next.
### Response inactive

### Prompt Try CC1(C)CC/C(=C/c2ccc(Cl)cc2)C1(O)Cn1cncn1 (stereo not given) next.
### Response inactive

All figures here come from PubChem BioAssay (Tox21).
